Listed below: pKi values for each entry.
Study System: H3 receptors of the brain of the rat (Rattus norvegicus, UniProt Q9QYN8)
Construct: This method requires rat cerebral cortex sections; from tissue; host or cells: rat cerebral cortex sections
Sequence (Q9QYN8 whole entry): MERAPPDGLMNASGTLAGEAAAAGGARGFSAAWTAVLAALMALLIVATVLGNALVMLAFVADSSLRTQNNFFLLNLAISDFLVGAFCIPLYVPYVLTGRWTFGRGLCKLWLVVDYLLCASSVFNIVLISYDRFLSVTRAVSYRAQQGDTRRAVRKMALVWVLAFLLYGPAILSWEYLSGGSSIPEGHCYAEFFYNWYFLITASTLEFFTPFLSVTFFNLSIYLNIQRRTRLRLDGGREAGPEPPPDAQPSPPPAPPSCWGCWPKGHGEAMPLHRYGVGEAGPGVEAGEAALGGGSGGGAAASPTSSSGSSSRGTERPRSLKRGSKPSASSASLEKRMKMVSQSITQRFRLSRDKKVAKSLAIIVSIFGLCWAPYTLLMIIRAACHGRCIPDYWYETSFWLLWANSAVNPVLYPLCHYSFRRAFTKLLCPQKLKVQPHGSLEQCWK
Assay Summary: Antagonism of the inhibition by exogenous histamine of release in rat cerebral cortex sections (central H3 receptors)
Assay type: cell-based
pKi: −log10 of the molar value.

| Entry Smiles | Study System | pKi |
| --- | --- | --- |
| Fc1ccc(CCCOCCCc2c[nH]cn2)cc1 | H3 receptors of the brain of the rat (Rattus norvegicus, UniProt Q9QYN8) | 8.15 |
| O=C(CCC1CCCC1)OCCCc1c[nH]cn1 | H3 receptors of the brain of the rat (Rattus norvegicus, UniProt Q9QYN8) | 8.52 |
| O=C(CCCc1ccccc1)CCCc1c[nH]cn1 | H3 receptors of the brain of the rat (Rattus norvegicus, UniProt Q9QYN8) | 7.70 |
| O=C(CCCC1CCCCC1)NCCCc1c[nH]cn1 | H3 receptors of the brain of the rat (Rattus norvegicus, UniProt Q9QYN8) | 7.23 |
| O=[N+]([O-])c1ccc(NCCc2c[nH]cn2)nc1 | H3 receptors of the brain of the rat (Rattus norvegicus, UniProt Q9QYN8) | 7.42 |
| Clc1ccc(COCCCc2c[nH]cn2)cc1 | H3 receptors of the brain of the rat (Rattus norvegicus, UniProt Q9QYN8) | 7.74 |
| c1ccc(CCCOCCCc2c[nH]cn2)cc1 | H3 receptors of the brain of the rat (Rattus norvegicus, UniProt Q9QYN8) | 7.77 |
| O=C(CCC1CCCC1)NC/C=C/c1c[nH]cn1 | H3 receptors of the brain of the rat (Rattus norvegicus, UniProt Q9QYN8) | 7.38 |
| O=C(CCc1ccccc1)NCCCc1c[nH]cn1 | H3 receptors of the brain of the rat (Rattus norvegicus, UniProt Q9QYN8) | 7.31 |
| c1ccc2sc(NCCc3c[nH]cn3)nc2c1 | H3 receptors of the brain of the rat (Rattus norvegicus, UniProt Q9QYN8) | 6.42 |
| Clc1ccc(CCCOCCCc2c[nH]cn2)cc1 | H3 receptors of the brain of the rat (Rattus norvegicus, UniProt Q9QYN8) | 7.89 |

---

Study System: H3 receptors of the brain of the rat (Rattus norvegicus, UniProt Q9QYN8)
Construct: This method requires rat cerebral cortex sections; from tissue; host or cells: rat cerebral cortex sections
Assay Summary: Antagonism of the inhibition by exogenous histamine of release in rat cerebral cortex sections (central H3 receptors)
Format: cell-based
Study Conditions: read-out: Apparent dissociation constant (Ki) as antagonist of histamine on the H3 receptors of the brain of the rat; rat cerebral cortex sections; exogenous histamine 1 μM; Ki calculated from IC50 according to Cheng and Prusoff
Experimental Endpoint: log10 of Ki (log10 of the value in nM)

| Entry Smiles | Measured |
| --- | --- |
| O=C(NCC1CC1)OCCCc1c[nH]cn1 | 1.72 |
| O=C(NCc1ccc([N+](=O)[O-])cc1)OCCCc1c[nH]cn1 | 1.18 |
| FC(F)(F)c1ccc(OCCCc2c[nH]cn2)cc1 | 1.15 |
| CCCc1ccc(OCCc2c[nH]cn2)cc1 | 1.28 |
| O=[N+]([O-])c1ccc(SCCc2c[nH]cn2)nc1 | 0.68 |

---

Study System: H3 receptors of the brain of the rat (Rattus norvegicus, UniProt Q9QYN8)
Construct: This method requires rat cerebral cortex sections; from tissue; host or cells: rat cerebral cortex sections
Assay Summary: Antagonism of the inhibition by exogenous histamine of release in rat cerebral cortex sections (central H3 receptors)
Assay type: cell-based
pKi: −log10 of the molar value.

| Molecule | pKi |
| --- | --- |
| S=C(CCC1CCCC1)NCCCc1c[nH]cn1 [Example 22] | 7.96 |
| N#CN=C(NCCCc1cnc[nH]1)NCC1CCCCC1 [Example 51] | 7.70 |
| CC(CC(=O)NCCCc1c[nH]cn1)c1ccccc1 (racemic) [Example 15] | 7.46 |
| Brc1ccc(CCCOCCCc2c[nH]cn2)cc1 [Example 38] | 7.82 |

Source of measurements: patent US5559113A
